biological target: human MC4R (Homo sapiens); construct: expressed in transfected cells; assay: Functional cAMP assay (CisBio HTRF) in BHK cells expressing human MC4R; type: cell-based; details: BHK cells expressing human MC4R; '>' = highest dose used with no response; read-out: MC4R cAMP EC50
Positions of bridges follow the written chain, without caps; N, C: chain ends. Non-standard residues stand in square brackets, D forms with d. Residues, ends and D or L forms follow the SMILES beside them. Cit = NC(=O)NCCC[C@H](N)C(=O)O

compound | EC50 / nM
N=C(N)NCCC[C@@H]1NC(=O)[C@@H]2CSSC[C@H](NC(=O)[C@H](Cc3c[nH]c4ccccc34)NC(=O)[C@H](CCCNC(N)=O)NC(=O)[C@@H](Cc3ccccc3)NC(=O)[C@H](Cc3c[nH]cn3)NC1=O)C(=O)N[C@@H](CCCNC(=N)N)C(=O)N[C@@H](Cc1c[nH]cn1)C(=O)N[C@H](Cc1ccccc1)C(=O)N[C@@H](CCCNC(N)=O)C(=O)N[C@@H](Cc1c[nH]c3ccccc13)C(=O)N2 [Chem. 54] (cyclo(CRH[dF][Cit]WCRH[dF][Cit]W); disulfide 1-7) | 0.04

---

Biological target: human MC4R (Homo sapiens, UniProt P32245)
Construct: expressed in transfected cells
Sequence (P32245 whole entry): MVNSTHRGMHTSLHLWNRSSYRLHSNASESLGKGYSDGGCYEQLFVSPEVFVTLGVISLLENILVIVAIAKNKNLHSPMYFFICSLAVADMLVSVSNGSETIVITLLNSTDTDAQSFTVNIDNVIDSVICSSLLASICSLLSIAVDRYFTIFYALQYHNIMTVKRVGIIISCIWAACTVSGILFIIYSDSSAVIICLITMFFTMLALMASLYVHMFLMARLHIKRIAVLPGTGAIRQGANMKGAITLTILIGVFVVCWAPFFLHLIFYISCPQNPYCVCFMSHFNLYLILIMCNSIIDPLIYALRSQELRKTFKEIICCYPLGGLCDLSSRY
Experiment: Functional cAMP assay (CisBio HTRF) in BHK cells expressing human MC4R
Assay type: cell-based
Conditions: BHK cells expressing human MC4R; '>' = highest dose used with no response; read-out: MC4R cAMP EC50
Procedure: In order to assess the potency of the compounds on human MC1R and human MC4R cAMP signalling was measured. cAMP induction was measured by c-AMPdynamic2 assay, HTRF 62AM4PEC system from CisBio for the human MC1R and human MC4R according to the protocol provided by the vendor. BHK cells expressing the human MC1 or MC4 receptor were generated by stable transfection with expression vectors encoding the cDNA of either MC1R or MC4R. […]
Positions of bridges follow the written chain, without caps; N, C: chain ends. Non-standard residues stand in square brackets, D forms with d. Residues, ends and D or L forms follow the SMILES beside them.

compound | EC50, nM
N=C(N)NCCC[C@@H]1NC(=O)[C@@H](Cc2ccccc2)NC(=O)[C@H](Cc2c[nH]cn2)NC(=O)[C@H](CCC(=O)O)NC(=O)[C@@H]2CSSC[C@H](NC(=O)[C@H](Cc3c[nH]c4ccccc34)NC1=O)C(=O)N[C@@H](CCC(=O)O)C(=O)N[C@@H](Cc1c[nH]cn1)C(=O)N[C@H](Cc1ccccc1)C(=O)N[C@@H](CCCNC(=N)N)C(=O)N[C@@H](Cc1c[nH]c3ccccc13)C(=O)N2 [Chem. 51] (cyclo(CEH[dF]RWCEH[dF]RW); disulfide 1-7) | 0.2

---

The following compounds are shown together with reported MC1R/MC4R cAMP EC50 ratio values.
target: human MC4R (Homo sapiens); construct: expressed in transfected cells; assay: Functional cAMP assay (CisBio HTRF) in BHK cells expressing human MC4R; assay type: cell-based; details: MC1R cAMP EC50 divided by MC4R cAMP EC50
Positions of bridges follow the written chain, without caps; N, C: chain ends. Non-standard residues stand in square brackets, D forms with d. Residues, ends and D or L forms follow the SMILES beside them. Agp = N=C(N)NC[C@H](N)C(=O)O; Pen = CC(C)(S)[C@H](N)C(=O)O; Aib = CC(C)(N)C(=O)O

compound | lt gt eq | MC1R/MC4R cAMP EC50 ratio
C[C@@H]1NC(=O)[C@@H]2CSSC[C@H](NC(=O)[C@H](CCCNC(=N)N)NC(=O)[C@H](Cc3c[nH]c4ccccc34)NC(=O)[C@H](CCCNC(=N)N)NC(=O)[C@@H](Cc3ccccc3)NC(=O)[C@H](Cc3c[nH]cn3)NC1=O)C(=O)N[C@@H](C)C(=O)N[C@@H](Cc1c[nH]cn1)C(=O)N[C@H](Cc1ccccc1)C(=O)N[C@@H](CCCNC(=N)N)C(=O)N[C@@H](Cc1c[nH]c3ccccc13)C(=O)N[C@@H](CCCNC(=N)N)C(=O)N2 [Chem. 69] (cyclo(AH[dF]RWRCAH[dF]RWRC); disulfide 7-14) | = | 5
C[C@@H]1NC(=O)[C@H]2NC(=O)[C@H](Cc3c[nH]c4ccccc34)NC(=O)[C@H](Cc3c[nH]cn3)NC(=O)[C@@H](Cc3ccccc3)NC(=O)[C@H](Cc3c[nH]cn3)NC(=O)[C@@H]3CCCN3C(=O)[C@H](CSSC2(C)C)NC(=O)[C@H](CCCNC(=N)N)NC(=O)[C@H](CCCCN)NC(=O)[C@H](CCCCN)NC(=O)[C@H](CCCCN)NC1=O [Chem. 93] (cyclo(AKKKRCPH[dF]HW[Pen]); disulfide 6-12) | = | 456
C[C@@H]1NC(=O)[C@@H]2CSSC[C@H](NC(=O)[C@H](Cc3c[nH]c4ccccc34)NC(=O)[C@H](CCCCN)NC(=O)[C@H](CCCCN)NC(=O)[C@H](CCCCN)NC1=O)C(=O)N1CCC[C@H]1C(=O)N[C@@H](Cc1c[nH]cn1)C(=O)N[C@H](Cc1ccccc1)C(=O)N[C@@H](Cc1c[nH]cn1)C(=O)N[C@@H](Cc1c[nH]c3ccccc13)C(=O)N2 [Chem. 62] (cyclo(AKKKWCPH[dF]HWC); disulfide 6-12) | > | 6
C[C@@H]1NC(=O)[C@@H]2CSSC[C@H](NC(=O)[C@H](Cc3c[nH]c4ccccc34)NC(=O)[C@H](CCCNC(=N)N)N(C)C(=O)[C@@H](Cc3ccccc3)NC(=O)[C@H](Cc3c[nH]cn3)NC1=O)C(=O)N[C@@H](C)C(=O)N[C@@H](Cc1c[nH]cn1)C(=O)N[C@H](Cc1ccccc1)C(=O)N(C)[C@@H](CCCNC(=N)N)C(=O)N[C@@H](Cc1c[nH]c3ccccc13)C(=O)N2 | = | 8
CC1(C)NC(=O)[C@@H]2CSSC[C@H](NC(=O)[C@H](Cc3c[nH]c4ccccc34)NC(=O)[C@H](CNC(=N)N)NC(=O)[C@@H](Cc3ccccc3)NC(=O)[C@H](Cc3c[nH]cn3)NC1=O)C(=O)NC(C)(C)C(=O)N[C@@H](Cc1c[nH]cn1)C(=O)N[C@H](Cc1ccccc1)C(=O)N[C@@H](CNC(=N)N)C(=O)N[C@@H](Cc1c[nH]c3ccccc13)C(=O)N2 [Chem. 43] (cyclo([Agp]WC[Aib]H[dF][Agp]WC[Aib]H[dF]); disulfide 3-9) | = | 107

---

molecular target: human MC4R (Homo sapiens, UniProt P32245); construct: expressed in transfected cells; experiment: Functional cAMP assay (CisBio HTRF) in BHK cells expressing human MC4R; type: cell-based; conditions: BHK cells expressing human MC4R; '>' = highest dose used with no response; read-out: MC4R cAMP EC50
Positions of bridges follow the written chain, without caps; N, C: chain ends. Non-standard residues stand in square brackets, D forms with d. Residues, ends and D or L forms follow the SMILES beside them. hCit = NC(=O)NCCCC[C@H](N)C(=O)O
test readout: EC50 (nM)

molecule | test readout | value units | quantitative readout
C[C@@H]1NC(=O)[C@@H]2CSSC[C@H](NC(=O)[C@H](Cc3c[nH]c4ccccc34)NC(=O)[C@H](CCCCN(C)C)NC(=O)[C@@H](Cc3ccccc3)NC(=O)[C@H](Cc3c[nH]cn3)NC1=O)C(=O)N[C@@H](C)C(=O)N[C@@H](Cc1c[nH]cn1)C(=O)N[C@H](Cc1ccccc1)C(=O)N[C@@H](CCCCN(C)C)C(=O)N[C@@H](Cc1c[nH]c3ccccc13)C(=O)N2 [Chem. 18] | EC50 | nM | 0.12
N=C(N)NCCC[C@@H]1NC(=O)[C@@H](Cc2ccccc2)NC(=O)[C@H](Cc2c[nH]cn2)NC(=O)[C@H]2CCCN2C(=O)[C@@H]2CSSC[C@H](NC(=O)[C@H](Cc3c[nH]c4ccccc34)NC1=O)C(=O)N1CCC[C@@H]1C(=O)N[C@@H](Cc1c[nH]cn1)C(=O)N[C@H](Cc1ccccc1)C(=O)N[C@@H](CCCNC(=N)N)C(=O)N[C@@H](Cc1c[nH]c3ccccc13)C(=O)N2 [Chem. 33] (cyclo(C[dP]H[dF]RWC[dP]H[dF]RW); disulfide 1-7) | EC50 | nM | 19.8
C[C@@H]1NC(=O)[C@@H]2CSSC[C@H](NC(=O)[C@H](CCCNC(=N)N)NC(=O)[C@H](CCCCN)NC(=O)[C@H](CCCCN)NC(=O)[C@H](CCCCN)NC1=O)C(=O)N1CCC[C@H]1C(=O)N[C@@H](Cc1c[nH]cn1)C(=O)N[C@H](Cc1ccccc1)C(=O)N[C@@H](CCCCNC(N)=O)C(=O)N[C@@H](Cc1c[nH]c3ccccc13)C(=O)N2 [Chem. 99] (cyclo(AKKKRCPH[dF][hCit]WC); disulfide 6-12) | EC50 | nM | 0.39
